B1: NET1 (parent)
chain: IKRTIRVLDVNNQSFREQEEPSNK

Variants of: B1
Assay: protein stability index of a GFP-peptide fusion (GPS, HEK-293T) (PSI 1-6); higher = more stable;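 also: lentivirally expressed fusions sorted by FACS into six bins by GFP to DsRed ratio, PSI derived from sequencing read proportions per bin multiplied by bin number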
Settings: c terminus: a fixed tail appended
# label = y if protein stability index >= 4 else n

sequenceInput: IKRTIRVLSVNNQSFREQEEPSNK
labelValue: n
//
sequenceInput: IKRTIRVLDCNNQSFREQEEPSNK
labelValue: n
//
sequenceInput: IKRTIFVLDVNNQSFREQEEPSNK
labelValue: n
//
sequenceInput: IKRTIRVLDVNNQSSREQEEPSNK
labelValue: y
//
sequenceInput: IKRTIRVLDVNNQSEREQEEPSNK
labelValue: y
//
sequenceInput: IKRTIRVLDINNQSFREQEEPSNK
labelValue: n
//
sequenceInput: IKRTIRVQDVNNQSFREQEEPSNK
labelValue: y
//
sequenceInput: IKRTISVLDVNNQSFREQEEPSNK
labelValue: y
//
sequenceInput: IKRTIQVLDVNNQSFREQEEPSNK
labelValue: y
//
sequenceInput: RKRTIRVLDVNNQSFREQEEPSNK
labelValue: n
//
sequenceInput: IKRTIRVTDVNNQSFREQEEPSNK
labelValue: y
//
sequenceInput: IKRTIRVLDVNNQSFREQEHPSNK
labelValue: n
//
sequenceInput: IKRTIRVLDVNTQSFREQEEPSNK
labelValue: n
//
sequenceInput: ILRTIRVLDVNNQSFREQEEPSNK
labelValue: n
//
sequenceInput: IKRTIRVLDVNNQSFRAQEEPSNK
labelValue: n
//
sequenceInput: IKRTIRVLDVNNQSFREQEECSNK
labelValue: n
//
sequenceInput: IKRTIRVLDVNNQSFREQPEPSNK
labelValue: n
//
sequenceInput: IKRTIRVLDVNNQSFREQEEPKNK
labelValue: n
//
sequenceInput: IKATIRVLDVNNQSFREQEEPSNK
labelValue: n
